- Tested on: SF-295 CNS
Lab note: assign the record to one of active, inactive

{"MOLECULE": "COc1ccc(CN2c3ccccc3Sc3ccccc32)cc1F", "ASSIGNED CLASS": "active"}

Tell me the recorded outcome of this test for "c1cncc(CNc2ccccc2-c2nnc(Nc3ccc4c(c3)OCO4)o2)c1" . active

Tell me the recorded outcome of this test for "O=C(Oc1cccnc1)c1ccccc1Nc1ccnc(C(F)(F)F)c1" . active

Tell me the recorded outcome of this test for "N#Cc1ccc(Oc2nccc(-c3c(-c4ccc(F)cc4)ncn3C3CCNCC3)n2)cc1" . inactive

Tell me the recorded outcome of this test for COc1cc2c(cc1OCCCCNC(=O)c1cc3ccccc3[nH]1)N=CC1CCCN1C2=O (stereo unspecified) . inactive

Tell me the recorded outcome of this test for "COC(=O)/C(C#N)=C\N1CCN(C(=O)c2ccco2)C1=S" . inactive
